Value source: patent US9403801B2

# protocolNotes: Compound stability in rat liver microsomes
# Format: in vitro ADME
# details: pH 7.4; Rat liver microsomes 0.5 mg protein/mL, compound 5 μM, NADPH 1.0 mM, 37° C.
# Experimental: Human or rat liver microsomes incubations were conducted in duplicate in polypropylene tubes. […] The concentrations of compounds in the incubation mixtures of human or rat liver microsomes were determined by a LC/MS/MS method. The ranges of the linearity in the concentration range were determined for each tested compounds. […]
Threshold 20 min. half-life at 5 μM below it: Satisfied. half-life at 5 μM at it or above: Not satisfied.

{"columns": ["molecule", "assignedLabel"],
 "data": [
  ["COc1cnc(Nc2cc(C3CC3)[nH]n2)nc1NC1CC2CN(C(=O)CC#N)CC2C1 (stereo not shown) [Ex. 52]", "Satisfied"],
  ["Cc1cc(Nc2ncc(Cl)c(NC3CC4CN(C(=O)CC#N)CC4C3)n2)nn1C (stereo not shown) [Ex. 39]", "Not satisfied"],
  ["Cn1cc(Nc2ncc(Cl)c(NC3CC4CN(C(=O)CC#N)CC4C3)n2)cn1 (stereo not shown) [Ex. 12]", "Satisfied"],
  ["N#CCC(=O)N1CC2CC(Nc3nc(Nc4cnn(CC5CC5)c4)ncc3Cl)CC2C1 (stereo not shown) [Ex. 46]", "Not satisfied"],
  ["CN(c1ccnc(Nc2cnn(C)c2)n1)C1CNCC12CCCC2 (stereo not shown) [Ex. 1]", "Not satisfied"],
  ["Cn1cc(Nc2ncc(Cl)c(NC3CC4CNCC4C3)n2)cn1 (stereo not shown) [Ex. 11]", "Satisfied"],
  ["Cc1c(Nc2ncc(Cl)c(NC3CC4CN(C(=O)CC#N)CC4C3)n2)cnn1C (stereo not shown) [Ex. 66]", "Not satisfied"]
]}

----------
# protocolNotes: Compound stability in human liver microsomes
# Format: in vitro ADME
# details: human, liver microsomes, pH 7.4, Human liver microsomes; in vivo CLint extrapolated
# Protocol: Human or rat liver microsomes incubations were conducted in duplicate in polypropylene tubes. […] The concentrations of compounds in the incubation mixtures of human or rat liver microsomes were determined by a LC/MS/MS method. The ranges of the linearity in the concentration range were determined for each tested compounds. […]
Recorded CLint scaled at 5 μM for the following compounds
testReadout: CLint scaled at 5 μM (mL/min/kg)

{"columns": ["compound", "reportedResult"],
 "data": [
  ["N#CCC(=O)N1CCC2(CCC(Nc3nc(Nc4cnn(CC5CC5)c4)ncc3Cl)CC2)CC1", 36.5],
  ["CC(=O)N1CCC2(CCC(Nc3nc(Nc4cnn(C)c4)ncc3Cl)CC2)CC1", 6.49],
  ["CN(c1nc(Nc2cnn(C)c2)ncc1Cl)C1CCC2(CCNC2)CC1 (single isomer, unassigned) [Ex. 3.10A]", 5.53],
  ["N#CCC(=O)N1CCC2(CCC(Nc3nc(Nc4cc(C5CC5)[nH]n4)ncc3Cl)CC2)CC1", 44.8],
  ["Cc1cnc(Nc2cnn(C)c2)nc1NC1CCC2(CC1)CCN(C(=O)CC#N)C2 (centres unmarked)", 1.15]
]}

----------
Below are molecules with their pIC50 as measured on JAK2 (h) (Homo sapiens (Human)).
Sequence (O60674 whole entry): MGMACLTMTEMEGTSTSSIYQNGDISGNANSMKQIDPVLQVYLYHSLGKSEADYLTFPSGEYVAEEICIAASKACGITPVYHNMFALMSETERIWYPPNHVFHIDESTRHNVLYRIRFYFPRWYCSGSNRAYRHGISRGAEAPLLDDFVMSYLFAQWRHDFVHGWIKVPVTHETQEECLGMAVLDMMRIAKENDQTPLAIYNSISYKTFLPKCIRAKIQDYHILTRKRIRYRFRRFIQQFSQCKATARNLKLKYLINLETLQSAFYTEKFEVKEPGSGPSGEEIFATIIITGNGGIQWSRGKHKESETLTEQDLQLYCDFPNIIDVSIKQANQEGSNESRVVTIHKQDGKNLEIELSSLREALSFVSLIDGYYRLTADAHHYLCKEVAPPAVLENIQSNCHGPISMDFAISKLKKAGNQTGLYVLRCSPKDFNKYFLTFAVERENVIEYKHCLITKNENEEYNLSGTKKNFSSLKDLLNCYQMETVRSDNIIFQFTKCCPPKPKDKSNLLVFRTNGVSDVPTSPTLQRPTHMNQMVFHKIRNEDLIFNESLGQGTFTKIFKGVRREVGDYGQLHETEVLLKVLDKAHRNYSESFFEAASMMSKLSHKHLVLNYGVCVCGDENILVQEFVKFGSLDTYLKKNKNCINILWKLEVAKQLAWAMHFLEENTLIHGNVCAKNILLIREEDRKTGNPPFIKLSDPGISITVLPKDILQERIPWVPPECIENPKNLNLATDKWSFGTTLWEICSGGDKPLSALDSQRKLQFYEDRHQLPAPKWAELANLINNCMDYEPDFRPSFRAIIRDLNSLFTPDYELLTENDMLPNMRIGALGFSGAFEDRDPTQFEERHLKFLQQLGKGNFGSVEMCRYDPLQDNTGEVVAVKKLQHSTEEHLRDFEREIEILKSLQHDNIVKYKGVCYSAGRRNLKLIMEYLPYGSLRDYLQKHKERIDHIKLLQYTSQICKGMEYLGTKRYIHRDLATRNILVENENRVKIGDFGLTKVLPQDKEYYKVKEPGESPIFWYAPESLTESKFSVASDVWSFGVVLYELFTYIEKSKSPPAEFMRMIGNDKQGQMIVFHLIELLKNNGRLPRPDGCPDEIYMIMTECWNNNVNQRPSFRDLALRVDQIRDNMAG
pIC50: −log10 of the molar value.
testReadout: pIC50

{"columns": ["molecule", "measuredTarget", "reportedResult"],
 "data": [
  ["Cn1cc(Nc2ncc(Cl)c(NC3CCC4(CC3)CCN(C(=O)CC#N)C4)n2)cn1 (single isomer, unassigned) [Ex. 14B]", "JAK2 (h) (Homo sapiens (Human))", 7.82],
  ["Cn1cc(Nc2ncc(Cl)c(NC3CCC4CN(C(=O)CC#N)CC4C3)n2)cn1 (stereo not shown) [Ex. 22]", "JAK2 (h) (Homo sapiens (Human))", 8.22],
  ["Cc1cc(Nc2ncc(Cl)c(NC3CCC4(CC3)CCN(C(=O)CC#N)CC4)n2)nn1C [Ex. 37]", "JAK2 (h) (Homo sapiens (Human))", 7.96],
  ["Cn1cnc(Nc2ncc(Cl)c(NC3CCC4(CC3)CCN(C(=O)CC#N)CC4)n2)c1 [Ex. 42]", "JAK2 (h) (Homo sapiens (Human))", 7.92]
]}

----------
# protocolNotes: Compound stability in human liver microsomes
# Format: in vitro ADME
# details: human, liver microsomes, pH 7.4, Human liver microsomes; in vivo CLint extrapolated

{"columns": ["compound", "CLint scaled at 5 μM, mL/min/kg"],
 "data": [
  ["Cn1cnc(Nc2ncc(Cl)c(NC3CCC4(CC3)CCN(C(=O)CC#N)CC4)n2)c1 [Ex. 42]", 35.6],
  ["Cc1cnc(Nc2cnn(C)c2)nc1NC1CCC2(CC1)CCN(C(=O)CC#N)CC2 [Ex. 25]", 3.33],
  ["Cn1cc(Nc2ncc(Cl)c(NC3CCC4(CC3)CCN(C(=O)CC#N)C4)n2)cn1 (single isomer, unassigned) [Ex. 14A]", 8.55]
]}

----------
# measuredTarget: JAK1 (h) (Homo sapiens (Human), UniProt P23458)
# Sequence (P23458 whole entry): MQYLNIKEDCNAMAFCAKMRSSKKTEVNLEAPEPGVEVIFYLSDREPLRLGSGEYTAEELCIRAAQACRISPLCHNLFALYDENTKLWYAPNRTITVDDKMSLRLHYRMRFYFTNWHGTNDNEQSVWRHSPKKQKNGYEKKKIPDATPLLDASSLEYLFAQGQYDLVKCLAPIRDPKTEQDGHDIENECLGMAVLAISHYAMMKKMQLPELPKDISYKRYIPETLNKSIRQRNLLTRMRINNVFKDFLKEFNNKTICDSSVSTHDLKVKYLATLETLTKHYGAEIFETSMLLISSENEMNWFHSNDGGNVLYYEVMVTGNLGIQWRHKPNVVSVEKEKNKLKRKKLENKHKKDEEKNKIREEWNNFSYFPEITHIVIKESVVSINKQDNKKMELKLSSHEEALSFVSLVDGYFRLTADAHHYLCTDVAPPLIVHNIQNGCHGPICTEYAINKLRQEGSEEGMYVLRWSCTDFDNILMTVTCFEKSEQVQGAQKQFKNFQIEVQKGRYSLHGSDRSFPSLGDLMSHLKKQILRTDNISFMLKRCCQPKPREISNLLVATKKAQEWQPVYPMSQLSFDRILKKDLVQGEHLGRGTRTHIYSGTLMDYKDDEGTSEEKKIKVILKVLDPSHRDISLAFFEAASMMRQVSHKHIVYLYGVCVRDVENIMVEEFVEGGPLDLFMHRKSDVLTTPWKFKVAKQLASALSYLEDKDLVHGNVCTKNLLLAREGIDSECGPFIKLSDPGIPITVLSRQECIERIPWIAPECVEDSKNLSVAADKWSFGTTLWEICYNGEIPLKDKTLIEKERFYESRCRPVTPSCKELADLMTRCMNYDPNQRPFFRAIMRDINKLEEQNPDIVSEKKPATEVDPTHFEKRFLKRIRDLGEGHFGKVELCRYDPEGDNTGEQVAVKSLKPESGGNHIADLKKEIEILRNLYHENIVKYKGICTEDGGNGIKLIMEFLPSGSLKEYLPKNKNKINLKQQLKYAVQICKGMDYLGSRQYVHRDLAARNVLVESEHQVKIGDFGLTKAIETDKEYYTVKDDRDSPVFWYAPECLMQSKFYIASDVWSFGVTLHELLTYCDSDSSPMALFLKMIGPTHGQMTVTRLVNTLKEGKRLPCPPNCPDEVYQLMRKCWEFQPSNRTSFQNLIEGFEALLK
# protocolNotes: JAK1 kinase assay (33P-ATP filter binding, Millipore)
# Type: biochemical
# Description: Kinase assays can be performed by measurement of incorporation of γ-^33P ATP into immobilized myelin basic protein (MBP). High binding white 384 well plates (Greiner) are coated with MBP (Sigma #M−1891) by incubation of 60 μL/well of 20 μg/mL MBP in Tris-buffered saline (TBS; 50 mM Tris pH 8.0, 138 mM NaCl, 2.7 mM KCl) for 24 h at 4° C. […] Each data point is measured in duplicate, and at least two duplicate assays are performed for each individual compound determination. […]
pIC50: −log10 of the molar value.
testReadout: pIC50

{"columns": ["molecule", "testReadout", "reportedResult"],
 "data": [
  ["Cn1cc(Nc2ncc(Cl)c(NC3CCC4(CC3)CCN(C(=O)CC#N)C4)n2)cn1 (single isomer, unassigned) [Ex. 14B]", "pIC50", 8.70],
  ["Cc1cnc(Nc2cnn(C)c2)nc1NC1CC2CN(S(C)(=O)=O)CC2C1 (stereo not shown) [Ex. 62]", "pIC50", 8.40],
  ["CC(=O)N1CC2CC(Nc3nc(Nc4cnn(C)c4)ncc3Cl)CC2C1 (stereo not shown) [Ex. 32]", "pIC50", 8.52],
  ["Cc1cnc(Nc2cnn(C)c2)nc1NC1CCC2(CC1)CCN(C(=O)CC#N)C2 (stereo not shown) [Ex. 10]", "pIC50", 8.15],
  ["Cn1cc(Nc2ncc(Cl)c(NC3CC4CN(CC(F)(F)F)CC4C3)n2)cn1 (stereo not shown) [Ex. 35]", "pIC50", 8.70],
  ["Cn1cc(Nc2ncc(Cl)c(NC3CC4CNCC4C3)n2)cn1 (stereo not shown) [Ex. 11]", "pIC50", 7.57],
  ["Cn1cc(Nc2ncc(Cl)c(NC3CCC4(CC3)CCN(C(=O)C(F)(F)F)CC4)n2)cn1 [Ex. 30]", "pIC50", 9.05]
]}

----------
# protocolNotes: Compound stability in rat liver microsomes
# Format: in vitro ADME
# details: rat, liver microsomes, pH 7.4, Rat liver microsomes; in vivo CLint extrapolated
Criterion: CLint scaled at 5 μM strictly less than 80 mL/min/kg. Met: criterion met. Not met: criterion not met.

{"columns": ["molecule", "assignedLabel"],
 "data": [
  ["Cc1cnc(Nc2cnn(C)c2)nc1NC1CCC2(CC1)CCN(C(=O)CC#N)CC2", "criterion not met"],
  ["CC(=O)N1CCC2(CCC(Nc3nc(Nc4cnn(C)c4)ncc3Cl)CC2)CC1", "criterion met"],
  ["Cc1cnc(Nc2cnn(C)c2)nc1NC1CCC2(CC1)CCN(C(=O)CC#N)C2 (centres unmarked)", "criterion met"]
]}
